# assay_explanation: Microsomal stability, mouse microsomes (CEREP)
# Format: in vitro ADME
# assay_context: 0.1 μM, 0.1 mg/mL microsomal protein
Classify: fulfilled when Mouse microsomes (% Cpd. remaining at 60 min) is strictly less than 20%; not fulfilled when Mouse microsomes (% Cpd. remaining at 60 min) is not.

Known results for compounds:
O=C(O)CCc1c[nH]c2ccc(CC(=O)NC(c3cccc(F)c3)c3ccccc3N3CCCCC3)cc12 (centres unmarked) [Cpd. 3]; not fulfilled
O=C(O)CCCc1c[nH]c2ccc(CC(=O)NC(c3ccccc3)c3ccccc3N3CCCCC3)cc12 (centres unmarked) [Cpd. 212]; fulfilled

Q: Record Cc1ccc(C(NC(=O)Cc2ccc3[nH]cc(CCC(=O)O)c3c2)c2ccccc2)c(N(C)C)c1 (centres unmarked) [Cpd. 192] : is its Mouse microsomes (% Cpd. remaining at 60 min) strictly below 20%?
A: not fulfilled

Q: Record Cc1ccc(C(NC(=O)Cc2ccc3oc(C(O)c4c(C)noc4C)cc3c2)c2ccccc2)c(C)c1 (single isomer, unassigned) [Cpd. T-3, reference compound] : is its Mouse microsomes (% Cpd. remaining at 60 min) strictly below 20%?
A: fulfilled

Q: Record COc1ccc(C(NC(=O)Cc2ccc3[nH]cc(CCC(=O)O)c3c2)c2ccccc2)c(N2CCCCC2)c1 (centres unmarked) [Cpd. 111] : is its Mouse microsomes (% Cpd. remaining at 60 min) strictly below 20%?
A: not fulfilled

====

# target_under_test: RORγt ligand-binding domain (RORγt-LBD) (Homo sapiens)
# Construct: 20 nM recombinantly expressed RORγ-LBD fused to GST
# assay_explanation: Time-resolved FRET (TR-FRET) RORγt coactivator assay
# assay_context: GST-RORγ-LBD, biotinylated RIP140 peptide, coactivator displacement
pIC50: −log10 of the molar value.
Let's look at some compounds and their measured pIC50.

O=C(O)Cc1c[nH]c2ccc(CC(=O)NC(c3ccccc3)c3ccc(Br)cc3N3CCCC3)cc12 (stereo not drawn); > 6.00
O=C(O)CCc1c[nH]c2ccc(CC(=O)NC(c3ccccc3)c3ccc(Cl)cc3N3CCCC3)cc12 (stereo not drawn); > 6.00
CC(C)(C)CC(NC(=O)Cc1ccc2[nH]cc(CCC(=O)O)c2c1)c1ccccc1N1CCCCC1 (stereo not drawn); > 6.00
Cc1ccc(C(NC(=O)Cc2ccc3[nH]cc(CCC(=O)OC(C)(C)C)c3c2)c2ccccc2)c(NC(C)C)c1 (stereo not drawn); > 6.00
Cc1ccc(C(NC(=O)Cc2ccc3[nH]cc(CCC(=O)OC(C)(C)C)c3c2)c2ccccc2)c(N)c1 (stereo not drawn); 5.00 to 6.00
Cc1ccc(C(NC(=O)Cc2ccc3[nH]cc(CCC(=O)O)c3c2)c2ccc(C)s2)c(N2CCCCC2)c1 (stereo not drawn); > 6.00

Q: Item CC(C)(C)OC(=O)CCc1c[nH]c2ccc(CC(=O)NC(c3ccccc3)c3ccccc3N3CCCCC3)cc12 (stereo not drawn) with RORγt ligand-binding domain (RORγt-LBD) (Homo sapiens) - pIC50?
A: 5.00 to 6.00

Q: Item CC(C)CC(NC(=O)Cc1ccc2[nH]cc(CC(=O)O)c2c1)c1ccccc1N1CCCCC1 (stereo not drawn) with RORγt ligand-binding domain (RORγt-LBD) (Homo sapiens) - pIC50?
A: 5.00 to 6.00

Q: Item COc1ccc(C(NC(=O)Cc2ccc3[nH]cc(CCC(=O)OC(C)(C)C)c3c2)c2ccccc2)c(N2CCCC2)c1 (stereo not drawn) with RORγt ligand-binding domain (RORγt-LBD) (Homo sapiens) - pIC50?
A: > 6.00

Q: Item CC(C)(C)OC(=O)CCc1c[nH]c2ccc(CC(=O)NC(c3ccccc3)c3cc(Cl)ccc3N3CCCCC3)cc12 (stereo not drawn) with RORγt ligand-binding domain (RORγt-LBD) (Homo sapiens) - pIC50?
A: 5.00 to 6.00

Q: Item O=C(O)CCc1c[nH]c2ccc(CC(=O)NC(c3ccccc3)c3ccc(Br)cc3N3CCCC3)cc12 (stereo not drawn) with RORγt ligand-binding domain (RORγt-LBD) (Homo sapiens) - pIC50?
A: > 6.00

====

# assay_explanation: Microsomal stability, human microsomes (CEREP)
# Format: in vitro ADME
# assay_context: 0.1 μM, 0.1 mg/mL microsomal protein
endpoint_label: Human microsomes (% Cpd. remaining at 60 min) (%)
Just the number in %, nothing appended.

The examples below pair each entry with its known result.
COc1ccc(C(NC(=O)Cc2ccc3[nH]cc(CCC(=O)O)c3c2)c2ccccc2)c(N2CCCCC2)c1 (centres unmarked); 88
O=C(O)CCCc1c[nH]c2ccc(CC(=O)NC(c3ccccc3)c3ccccc3N3CCCCC3)cc12 (centres unmarked); 26
Cc1ccc(C(NC(=O)Cc2ccc3[nH]cc(CCC(=O)O)c3c2)c2ccccc2)c(N(C)C)c1 (centres unmarked); 79
O=C(O)CCc1c[nH]c2ccc(CC(=O)NC(c3ccccc3)c3ccccc3N3CCCCC3)cc12 (centres unmarked); 54

--- query ---
Q: If you can, please state the reported Human microsomes (% Cpd. remaining at 60 min) value of CC(C)CC(NC(=O)Cc1ccc2[nH]cc(CCC(=O)O)c2c1)c1ccccc1N1CCCCC1 (centres unmarked) .
A: 23

====

# target_under_test: RORγt ligand-binding domain (RORγt-LBD) (Homo sapiens)
# Construct: 20 nM recombinantly expressed RORγ-LBD fused to GST
# assay_explanation: Time-resolved FRET (TR-FRET) RORγt coactivator assay
# assay_context: GST-RORγ-LBD, biotinylated RIP140 peptide, coactivator displacement
# Source text: Time-resolved FRET (TR-FRET) RORγt coactivator assay was used to identify RORγ modulator compounds with ligand-dependent coactivator displacement. […] For reduction of background from compound fluorescence, TR-FRET method makes use of generic fluorophore labels and time resolved detection. […]
pIC50: −log10 of the molar value.
Let's look at some compounds and their measured pIC50.

The examples below pair each entry with its known result.
COc1ccc(N2CCCCC2)c(C(NC(=O)Cc2ccc3[nH]cc(CCC(=O)OC(C)(C)C)c3c2)c2ccccc2)c1 (stereo not shown); 5.00 to 6.00
Cc1ccc(C(NC(=O)Cc2ccc3[nH]cc(CCC(=O)O)c3c2)c2ccccc2)c(N2CC=CC2)c1 (stereo not shown); > 6.00
COC(=O)Cc1c[nH]c2ccc(CC(=O)NC(c3ccccc3)c3ccc(C)cc3N3CCCCC3)cc12 (stereo not shown); > 6.00

Q: Item COC(=O)Cc1c[nH]c2ccc(CC(=O)NC(c3ccc(C)s3)c3ccc(C)cc3C)cc12 (stereo not shown) with RORγt ligand-binding domain (RORγt-LBD) (Homo sapiens) - pIC50?
A: 5.00 to 6.00

====

# target_under_test: CYP2D6 (Homo sapiens)
# assay_explanation: CYP inhibition CYP2D6 (CEREP)
# Assay type: in vitro ADME
# assay_context: human, recombinant CYP2D6, human recombinant CYP, single concentration (typically 10 μM); read-out: CYP 2D6 (% inhibition of Control)
Let's look at some compounds and their measured inhibition at 10 µM.

The examples below pair each entry with its known result.
COc1ccc(C(NC(=O)Cc2ccc3[nH]cc(CCC(=O)O)c3c2)c2ccccc2)c(N2CCCCC2)c1 (stereo not shown); 7.5%
Cc1ccc(C(NC(=O)Cc2ccc3oc(C(O)c4c(C)noc4C)cc3c2)c2ccccc2)c(C)c1 (single isomer, unassigned) [Cpd. T-4, reference compound]; 31%
O=C(O)CCCc1c[nH]c2ccc(CC(=O)NC(c3ccccc3)c3ccccc3N3CCCCC3)cc12 (stereo not shown); -6.3%
CC(C)CC(NC(=O)Cc1ccc2[nH]cc(CCC(=O)O)c2c1)c1ccccc1N1CCCCC1 (stereo not shown); 18.2%
O=C(O)CCc1c[nH]c2ccc(CC(=O)NC(c3cccc(F)c3)c3ccccc3N3CCCCC3)cc12 (stereo not shown); -2%
Cc1ccc(C(NC(=O)Cc2ccc3[nH]cc(CCC(=O)O)c3c2)c2ccccc2)c(N(C)C)c1 (stereo not shown); 4.3%

Q: If you can, please state the reported inhibition at 10 µM value of Cc1ccc(C(NC(=O)Cc2ccc3[nH]cc(CCC(=O)O)c3c2)c2ccccc2)c(N2CCCC2)c1 (stereo not shown) .
A: 13.5%

====

# target_under_test: CYP2D6 (Homo sapiens, UniProt P10635)
# Sequence (P10635 whole entry): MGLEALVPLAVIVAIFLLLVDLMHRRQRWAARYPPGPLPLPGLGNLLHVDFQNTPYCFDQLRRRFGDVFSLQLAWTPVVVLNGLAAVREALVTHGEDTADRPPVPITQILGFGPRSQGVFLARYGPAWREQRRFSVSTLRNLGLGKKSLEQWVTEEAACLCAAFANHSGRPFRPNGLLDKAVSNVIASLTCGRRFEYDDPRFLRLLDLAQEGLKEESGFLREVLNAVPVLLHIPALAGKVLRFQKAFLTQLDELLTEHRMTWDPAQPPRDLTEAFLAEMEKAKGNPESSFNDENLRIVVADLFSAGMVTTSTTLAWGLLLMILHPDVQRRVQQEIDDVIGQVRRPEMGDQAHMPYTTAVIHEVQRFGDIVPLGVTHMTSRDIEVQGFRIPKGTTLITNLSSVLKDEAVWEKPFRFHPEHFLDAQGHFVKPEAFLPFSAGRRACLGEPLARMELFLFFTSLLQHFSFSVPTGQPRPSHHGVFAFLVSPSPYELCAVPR
# assay_explanation: CYP inhibition CYP2D6 (CEREP)
# Format: in vitro ADME
# assay_context: human, recombinant CYP2D6, human recombinant CYP, single concentration (typically 10 μM); read-out: CYP 2D6 (% inhibition of Control)
Let's look at some molecules and their measured inhibition at 10 µM.
Just the number in %, nothing appended.

Q: If you can, please state the reported inhibition at 10 µM value of O=C(O)CCc1c[nH]c2ccc(CC(=O)NC(c3ccccc3)c3ccc(Br)cc3N3CCCC3)cc12 (stereo not shown) [Cpd. 50] .
A: 26.5

====

# target_under_test: human RORγt (Homo sapiens, UniProt P51449)
# Sequence (P51449 1-497 isoform P51449-2): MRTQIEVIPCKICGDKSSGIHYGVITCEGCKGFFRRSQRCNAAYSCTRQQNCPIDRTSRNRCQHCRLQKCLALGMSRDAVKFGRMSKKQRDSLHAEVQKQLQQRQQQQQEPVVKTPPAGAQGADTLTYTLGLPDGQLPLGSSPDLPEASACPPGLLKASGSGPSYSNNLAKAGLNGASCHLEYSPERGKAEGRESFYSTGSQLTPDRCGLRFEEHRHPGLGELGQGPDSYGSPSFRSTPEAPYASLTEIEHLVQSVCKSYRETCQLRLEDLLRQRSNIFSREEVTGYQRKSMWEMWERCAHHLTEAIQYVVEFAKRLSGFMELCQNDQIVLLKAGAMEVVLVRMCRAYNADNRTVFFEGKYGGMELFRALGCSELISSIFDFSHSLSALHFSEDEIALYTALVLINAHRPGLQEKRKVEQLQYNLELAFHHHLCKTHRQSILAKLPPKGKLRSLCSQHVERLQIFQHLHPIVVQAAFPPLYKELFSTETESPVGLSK
# assay_explanation: IL-17 secretion from EL4 murine lymphoma overexpressing human RORγt
# Type: cell-based
# Design: expressed in transfected cells; host or cells: EL-4 murine lymphoma
# assay_context: IL-17 secretion inhibition, PMA and ionomycin stimulation, 24 h
pIC50: −log10 of the molar value.
Let's look at some molecules and their measured pIC50.

The examples below pair each entry with its known result.
CC(C)(C)OC(=O)CCc1c[nH]c2ccc(CC(=O)NC(c3ccccc3)c3ccc(Br)cc3N3CCCC3)cc12 (stereo not drawn); 5.00 to 6.00
O=C(O)CCCCc1c[nH]c2ccc(CC(=O)NC(c3ccccc3)c3ccccc3N3CCCCC3)cc12 (stereo not drawn); 5.00 to 6.00

Q: Item COc1ccc(C(NC(=O)Cc2ccc3[nH]cc(CCC(=O)OC(C)(C)C)c3c2)c2ccccc2)c(N2CCCC2)c1 (stereo not drawn) with human RORγt (Homo sapiens, UniProt P51449) - pIC50?
A: > 6.00

Q: Item Cc1ccc(C(C(=O)NCc2ccc3[nH]cc(CCC(=O)O)c3c2)c2ccccc2)c(N2CCCCC2)c1 (stereo not drawn) with human RORγt (Homo sapiens, UniProt P51449) - pIC50?
A: 5.00 to 6.00
